- target desc: CSF-1R (Homo sapiens (Human), UniProt P07333)
- Sequence (P07333 20-972): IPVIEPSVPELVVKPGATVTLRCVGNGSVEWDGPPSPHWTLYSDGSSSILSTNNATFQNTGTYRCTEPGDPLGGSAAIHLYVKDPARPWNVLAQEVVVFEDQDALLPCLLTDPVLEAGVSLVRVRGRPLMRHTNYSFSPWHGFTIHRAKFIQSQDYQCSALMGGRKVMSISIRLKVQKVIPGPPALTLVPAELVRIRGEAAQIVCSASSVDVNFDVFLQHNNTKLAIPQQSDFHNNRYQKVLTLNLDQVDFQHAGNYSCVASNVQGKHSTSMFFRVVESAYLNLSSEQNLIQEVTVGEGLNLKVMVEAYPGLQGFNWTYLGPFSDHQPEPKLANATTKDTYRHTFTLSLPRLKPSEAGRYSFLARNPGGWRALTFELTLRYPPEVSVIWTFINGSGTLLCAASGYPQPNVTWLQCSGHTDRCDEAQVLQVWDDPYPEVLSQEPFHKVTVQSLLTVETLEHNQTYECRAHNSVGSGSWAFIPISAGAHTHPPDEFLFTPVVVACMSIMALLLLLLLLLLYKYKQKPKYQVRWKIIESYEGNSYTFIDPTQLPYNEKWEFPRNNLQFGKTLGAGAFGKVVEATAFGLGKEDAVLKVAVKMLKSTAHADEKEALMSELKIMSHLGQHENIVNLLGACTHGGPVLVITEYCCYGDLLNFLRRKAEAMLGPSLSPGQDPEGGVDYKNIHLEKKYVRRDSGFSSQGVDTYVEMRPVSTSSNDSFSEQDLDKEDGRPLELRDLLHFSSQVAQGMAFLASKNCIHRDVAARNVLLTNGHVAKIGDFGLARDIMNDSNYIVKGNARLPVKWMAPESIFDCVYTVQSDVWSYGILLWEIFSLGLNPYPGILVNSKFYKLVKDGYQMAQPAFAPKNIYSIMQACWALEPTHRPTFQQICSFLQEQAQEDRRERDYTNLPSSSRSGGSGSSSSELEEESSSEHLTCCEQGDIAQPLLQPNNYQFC
- protocol details: Biochemical HTRF kinase assay, CSF-1R;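 also: enzyme incubated with inhibitor plus a substrate and ATP mix for one hour at room temperature before HTRF detection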
- settings: Table 2; recombinant human CSF-1R
measurement name: IC50 (nM)
// units = nM; emit number, no label

Example entries begin here.
smiles representation | target desc | IC50 / nM
COc1ccc2c(Cc3ccc(OCc4ccc5cnn(C)c5c4)c(OC)c3)ccnc2c1 | CSF-1R (Homo sapiens (Human), UniProt P07333) | 299
COc1cnc2c(Cc3cnc(OCc4ccc5nccn5n4)c(OC)c3)ccnc2c1 | CSF-1R (Homo sapiens (Human), UniProt P07333) | 42.7
COc1ccc2c(Cc3ccc(OCc4ccc5ncnn5c4)c(OC)c3)ccnc2c1 | CSF-1R (Homo sapiens (Human), UniProt P07333) | 12.6
COc1cnc2c(Cc3cnc(OCc4cc5n(n4)CCOC5)c(OC)c3)ccnc2c1 | CSF-1R (Homo sapiens (Human), UniProt P07333) | 3.3

For this molecule ( COc1ccc2c(Cc3ccc(OCc4ccc(=O)n(C)c4)c(OC)c3)ccnc2c1 ), measured IC50 is 5

Sure, the documented IC50 for COc1cnc2c(Cc3cnc(OCc4cc(C(C)C)n(C)n4)c(OC)c3)ccnc2c1 is 2.1

Short answer for COc1cnc2c(Cc3cnc(OCc4ccc(C(F)(F)F)cn4)c(OC)c3)ccnc2c1 : IC50 was 3.9

Lab note: measured IC50 of COc1cnc2c(Cc3cnc(OCc4cnc(OC)nc4)c(OC)c3)ccnc2c1 was 15.2

Numbers sourced from patent US20250360145A1.
